tested on: 324938-238-R-J1-PDC complex spheroids viability; experiment: Anticancer human tumor 324938-238-R-J1-PDC patient-derived bladder carcinoma cell line growth inhibition [CLK]; conditions: second compound 0.1 µM; first compound 0.00949 µM; active = viability on the fitted dose curve at most 10% of control; inactive = the rest
Outcome codes: active, inactive

# MOLECULE, CAT
data = [
    ("NC(=O)C(=Cn1cnc(-c2cc(C(F)(F)F)cc(C(F)(F)F)c2)n1)c1cncnc1 + CNC(=O)c1ccc(Nc2nc(OC3CCCC3)c3c(-c4ccc5nc(C)oc5c4)c[nH]c3n2)c(OC)c1", "inactive"),
    ("CC(C)CC(NC(=O)C(Cc1ccccc1)NC(=O)c1cnccn1)B(O)O (stereo unspecified) + CN1CCN(c2cc(C(=O)Nc3cc4cc(-c5cnn(C)c5)ccc4cn3)ccn2)CC1", "active"),
    ("CC(C)CC(NC(=O)C(Cc1ccccc1)NC(=O)c1cnccn1)B(O)O (stereo unspecified) + CNC(=O)c1ccc(Nc2nc(OC3CCCC3)c3c(-c4ccc5nc(C)oc5c4)c[nH]c3n2)c(OC)c1", "active"),
    ("C=CC(=O)Nc1cc(Nc2nccc(-c3cn(C)c4ccccc34)n2)c(OC)cc1N(C)CCN(C)C + CNC(=O)c1ccc(Nc2nc(OC3CCCC3)c3c(-c4ccc5nc(C)oc5c4)c[nH]c3n2)c(OC)c1", "inactive"),
    ("NC(=O)C(=Cn1cnc(-c2cc(C(F)(F)F)cc(C(F)(F)F)c2)n1)c1cncnc1 + CN1CCN(c2cc(C(=O)Nc3cc4cc(-c5cnn(C)c5)ccc4cn3)ccn2)CC1", "inactive"),
    ("C=CC(=O)Nc1cc(Nc2nccc(-c3cn(C)c4ccccc34)n2)c(OC)cc1N(C)CCN(C)C + CN1CCN(c2cc(C(=O)Nc3cc4cc(-c5cnn(C)c5)ccc4cn3)ccn2)CC1", "inactive"),
]

* * *

system: 324938-238-R-J1-PDC complex spheroids viability; assay: Anticancer human tumor 324938-238-R-J1-PDC cell line growth inhibition [CLK]; details: second compound 10 µM; first compound 0.0316 µM; active compounds read low;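 also: viability read after seven days of drug exposure; 100% = DMSO vehicle control wells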

# MOLECULE, viability, T/C
data = [
    ("C=C(F)C(=O)N1CCN(c2nc(OCC3CCCN3C)nc3c2CCN(c2cccc4cccc(Cl)c24)C3)CC1CC#N (stereo not given) + CNC(=O)c1ccc(Nc2nc(OC3CCCC3)c3c(-c4ccc5nc(C)oc5c4)c[nH]c3n2)c(OC)c1", "16.7%"),
    ("COc1cccc2c1C(=O)c1c(O)c3c(c(O)c1C2=O)CC(O)(C(=O)CO)CC3OC1CC(N)C(O)C(C)O1 (stereo not given) + CN1CCN(c2cc(C(=O)Nc3cc4cc(-c5cnn(C)c5)ccc4cn3)ccn2)CC1", "0.09%"),
    ("Cn1ncnc1[C@H]1c2n[nH]c(=O)c3cc(F)cc(c23)N[C@@H]1c1ccc(F)cc1 + CNC(=O)c1ccc(Nc2nc(OC3CCCC3)c3c(-c4ccc5nc(C)oc5c4)c[nH]c3n2)c(OC)c1", "18.7%"),
    ("COc1cccc2c1C(=O)c1c(O)c3c(c(O)c1C2=O)CC(O)(C(=O)CO)CC3OC1CC(N)C(O)C(C)O1 (stereo not given) + CNC(=O)c1ccc(Nc2nc(OC3CCCC3)c3c(-c4ccc5nc(C)oc5c4)c[nH]c3n2)c(OC)c1", "18.3%"),
    ("C#Cc1c(F)ccc2cc(O)cc(-c3ncc4c(N5CC6CCC(C5)N6)nc(OCC56CCCN5CC(F)C6)nc4c3F)c12 (stereo not given) + CNC(=O)c1ccc(Nc2nc(OC3CCCC3)c3c(-c4ccc5nc(C)oc5c4)c[nH]c3n2)c(OC)c1", "15.9%"),
    ("CC(Nc1ccc2c(c1)OCCn1cc(N3C(=O)OCC3C(F)F)nc1-2)C(N)=O (stereo not given) + CNC(=O)c1ccc(Nc2nc(OC3CCCC3)c3c(-c4ccc5nc(C)oc5c4)c[nH]c3n2)c(OC)c1", "14.4%"),
    ("CCN1CCN(Cc2ccc(Nc3ncc(F)c(-c4cc(F)c5nc(C)n(C(C)C)c5c4)n3)nc2)CC1 + CN1CCN(c2cc(C(=O)Nc3cc4cc(-c5cnn(C)c5)ccc4cn3)ccn2)CC1", "0.2%"),
    ("COC1C=CCC(C)C(C)S(=O)(=O)NC(=O)c2ccc3c(c2)N(CC2CCC21)CC1(CCCc2cc(Cl)ccc21)CO3 (stereo not given) + CN1CCN(c2cc(C(=O)Nc3cc4cc(-c5cnn(C)c5)ccc4cn3)ccn2)CC1", "0.19%"),
    ("Nc1ccn(C2OC(CO)C(O)C2(F)F)c(=O)n1 (stereo not given) + CNC(=O)c1ccc(Nc2nc(OC3CCCC3)c3c(-c4ccc5nc(C)oc5c4)c[nH]c3n2)c(OC)c1", "18%"),
    ("CC(CO)NC(=O)c1cc(-c2ccc(Cl)cc2)nn(-c2cnn(C)c2)c1=O (stereo not given) + CNC(=O)c1ccc(Nc2nc(OC3CCCC3)c3c(-c4ccc5nc(C)oc5c4)c[nH]c3n2)c(OC)c1", "17.3%"),
]

* * *

tested on: 324938-238-R-J1-PDC complex spheroids viability; assay: Anticancer human tumor 324938-238-R-J1-PDC cell line growth inhibition [CLK]; details: second compound 10 µM; first compound 0.1 µM; active compounds read low;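 also: viability read after seven days of drug exposure; 100% = DMSO vehicle control wells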
QUANTITY NAME: viability, T/C (%)

# COMPOUND, QUANTITY NAME, UNITS, RECORDED MEASUREMENT
measured = [
    ("O=c1[nH]cc(F)c(=O)[nH]1 + CN1CCN(c2cc(C(=O)Nc3cc4cc(-c5cnn(C)c5)ccc4cn3)ccn2)CC1", "viability, T/C", "%", 0.12),
    ("C=C(F)C(=O)N1CCN(c2nc(OCC3CCCN3C)nc3c2CCN(c2cccc4cccc(Cl)c24)C3)CC1CC#N (stereo not given) + CN1CCN(c2cc(C(=O)Nc3cc4cc(-c5cnn(C)c5)ccc4cn3)ccn2)CC1", "viability, T/C", "%", 0.23),
    ("COc1c(OCCCN2CCOCC2)ccc2c3n(c(=NC(=O)c4cnc(N)nc4)nc12)CCN3 + CN1CCN(c2cc(C(=O)Nc3cc4cc(-c5cnn(C)c5)ccc4cn3)ccn2)CC1", "viability, T/C", "%", 0.09),
    ("CCN1CCN(Cc2ccc(Nc3ncc(F)c(-c4cc(F)c5nc(C)n(C(C)C)c5c4)n3)nc2)CC1 + CNC(=O)c1ccc(Nc2nc(OC3CCCC3)c3c(-c4ccc5nc(C)oc5c4)c[nH]c3n2)c(OC)c1", "viability, T/C", "%", 18.4),
    ("COc1ccc([C@@H](O)c2cc(-c3ncnc4cc(N5CCOCC5)ccc34)c(F)cc2Cl)nn1 + CNC(=O)c1ccc(Nc2nc(OC3CCCC3)c3c(-c4ccc5nc(C)oc5c4)c[nH]c3n2)c(OC)c1", "viability, T/C", "%", 16.7),
]

* * *

Reported values of viability, T/C for individual entries
tested on: 324938-238-R-J1-PDC complex spheroids viability; test: Anticancer human tumor 324938-238-R-J1-PDC cell line growth inhibition [CLK]; details: second compound 1 µM; first compound 0.03 µM; active compounds read low;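 also: viability read after seven days of drug exposure; 100% = DMSO vehicle control wells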
QUANTITY NAME: viability, T/C (%)

# COMPOUND, RECORDED MEASUREMENT
measured = [
    ("C=CC(=O)Nc1cc(Nc2nccc(-c3cn(C)c4ccccc34)n2)c(OC)cc1N(C)CCN(C)C + CNC(=O)c1ccc(Nc2nc(OC3CCCC3)c3c(-c4ccc5nc(C)oc5c4)c[nH]c3n2)c(OC)c1", 11.8),
    ("NC(=O)C(=Cn1cnc(-c2cc(C(F)(F)F)cc(C(F)(F)F)c2)n1)c1cncnc1 + CNC(=O)c1ccc(Nc2nc(OC3CCCC3)c3c(-c4ccc5nc(C)oc5c4)c[nH]c3n2)c(OC)c1", 12.8),
    ("C=CC(=O)Nc1cc(Nc2nccc(-c3cn(C)c4ccccc34)n2)c(OC)cc1N(C)CCN(C)C + CN1CCN(c2cc(C(=O)Nc3cc4cc(-c5cnn(C)c5)ccc4cn3)ccn2)CC1", 1.11),
    ("NC(=O)C(=Cn1cnc(-c2cc(C(F)(F)F)cc(C(F)(F)F)c2)n1)c1cncnc1 + CN1CCN(c2cc(C(=O)Nc3cc4cc(-c5cnn(C)c5)ccc4cn3)ccn2)CC1", 0.17),
    ("CC(C)CC(NC(=O)C(Cc1ccccc1)NC(=O)c1cnccn1)B(O)O (stereo unspecified) + CN1CCN(c2cc(C(=O)Nc3cc4cc(-c5cnn(C)c5)ccc4cn3)ccn2)CC1", 0.16),
    ("CC(C)CC(NC(=O)C(Cc1ccccc1)NC(=O)c1cnccn1)B(O)O (stereo unspecified) + CNC(=O)c1ccc(Nc2nc(OC3CCCC3)c3c(-c4ccc5nc(C)oc5c4)c[nH]c3n2)c(OC)c1", 0.1),
]

* * *

System: 324938-238-R-J1-PDC complex spheroids viability
Test: Anticancer human tumor 324938-238-R-J1-PDC cell line growth inhibition [CLK];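 also: viability read after seven days of drug exposure; 100% = DMSO vehicle control wells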
Conditions: second compound 0.316 µM; first compound 0.03 µM; active compounds read low
From the text: A high-throughput screen of multi-cell type tumor spheroids was designed to identify active combinations of […] and targeted small molecules. Complex spheroids include a stromal component modeled by human endothelial cells (HUVEC) and fibroblasts modeled by human mesenchymal stem cells (MSCs). […] Compounds. […] If the clinical Cmax for an agent had not been determined, the highest concentration tested was 10 microM. […]

# MOLECULE, viability, T/C [%]
rows = [
    ("CC(C)CC(NC(=O)C(Cc1ccccc1)NC(=O)c1cnccn1)B(O)O (stereo unspecified) + CN1CCN(c2cc(C(=O)Nc3cc4cc(-c5cnn(C)c5)ccc4cn3)ccn2)CC1", 0.2),
    ("NC(=O)C(=Cn1cnc(-c2cc(C(F)(F)F)cc(C(F)(F)F)c2)n1)c1cncnc1 + CN1CCN(c2cc(C(=O)Nc3cc4cc(-c5cnn(C)c5)ccc4cn3)ccn2)CC1", 13.4),
    ("NC(=O)C(=Cn1cnc(-c2cc(C(F)(F)F)cc(C(F)(F)F)c2)n1)c1cncnc1 + CNC(=O)c1ccc(Nc2nc(OC3CCCC3)c3c(-c4ccc5nc(C)oc5c4)c[nH]c3n2)c(OC)c1", 15.5),
    ("C=CC(=O)Nc1cc(Nc2nccc(-c3cn(C)c4ccccc34)n2)c(OC)cc1N(C)CCN(C)C + CNC(=O)c1ccc(Nc2nc(OC3CCCC3)c3c(-c4ccc5nc(C)oc5c4)c[nH]c3n2)c(OC)c1", 16.2),
    ("CC(C)CC(NC(=O)C(Cc1ccccc1)NC(=O)c1cnccn1)B(O)O (stereo unspecified) + CNC(=O)c1ccc(Nc2nc(OC3CCCC3)c3c(-c4ccc5nc(C)oc5c4)c[nH]c3n2)c(OC)c1", 0.08),
    ("C=CC(=O)Nc1cc(Nc2nccc(-c3cn(C)c4ccccc34)n2)c(OC)cc1N(C)CCN(C)C + CN1CCN(c2cc(C(=O)Nc3cc4cc(-c5cnn(C)c5)ccc4cn3)ccn2)CC1", 21.8),
]
